For each entry below, report its IC50 value.
- system: human TLR8 (Homo sapiens (Human))
- Sequence (Q9NR97 27-1041): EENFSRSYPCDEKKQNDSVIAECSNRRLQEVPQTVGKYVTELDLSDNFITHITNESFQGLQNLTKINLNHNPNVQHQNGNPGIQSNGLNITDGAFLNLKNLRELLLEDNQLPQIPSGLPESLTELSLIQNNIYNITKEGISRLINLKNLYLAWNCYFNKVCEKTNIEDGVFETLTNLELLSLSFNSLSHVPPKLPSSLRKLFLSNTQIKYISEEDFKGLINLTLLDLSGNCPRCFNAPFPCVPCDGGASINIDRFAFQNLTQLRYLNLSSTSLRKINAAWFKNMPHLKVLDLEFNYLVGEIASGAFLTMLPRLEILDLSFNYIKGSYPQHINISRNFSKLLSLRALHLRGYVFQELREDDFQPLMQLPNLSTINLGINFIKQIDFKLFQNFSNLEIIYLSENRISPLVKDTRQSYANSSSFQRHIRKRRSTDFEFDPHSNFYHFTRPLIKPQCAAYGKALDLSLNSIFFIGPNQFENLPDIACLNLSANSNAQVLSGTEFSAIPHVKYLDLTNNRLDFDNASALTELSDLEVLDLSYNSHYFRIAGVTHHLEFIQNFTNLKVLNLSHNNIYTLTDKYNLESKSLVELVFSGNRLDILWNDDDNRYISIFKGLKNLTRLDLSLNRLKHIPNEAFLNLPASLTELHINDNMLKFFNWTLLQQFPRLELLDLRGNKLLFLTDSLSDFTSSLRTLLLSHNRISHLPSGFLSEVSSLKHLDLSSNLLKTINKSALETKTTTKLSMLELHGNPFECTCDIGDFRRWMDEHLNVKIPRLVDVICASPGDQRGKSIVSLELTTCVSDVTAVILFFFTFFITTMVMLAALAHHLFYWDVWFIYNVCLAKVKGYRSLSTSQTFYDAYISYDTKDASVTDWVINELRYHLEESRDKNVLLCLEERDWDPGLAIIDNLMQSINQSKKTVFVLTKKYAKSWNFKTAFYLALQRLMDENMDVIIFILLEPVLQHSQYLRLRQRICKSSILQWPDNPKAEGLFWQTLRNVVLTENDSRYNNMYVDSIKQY
- test-description: TLR8 inhibition reporter assay (HEK-Blue SEAP);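 further: SEAP driven by IFN-β minimal promoter carrying NF-κB and AP-1 sites, compounds dosed 0.05 nM to 50 µM for 22 h, inhibition scaled between agonist-plus-DMSO and reference-inhibitor wells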
- test-conditions: read-out: TLR8 IC50; HEK-Blue cells overexpressing human TLR8, SEAP reporter, R848 15.9 μM
Give just the numeric value; nM need not be written.

Recorded IC50 for Cc1c(-c2[nH]c3ccc(N4C[C@H](C)N(CCC(N)=O)[C@@H](C)C4)nc3c2C(C)C)cn2ncnc2c1C on human TLR8 (Homo sapiens (Human)) was 1.7

Recorded IC50 for COc1cc(-c2[nH]c3cc(C)c(C(=O)N(C)CCC(F)(F)F)nc3c2C(C)C)cn2ncnc12 on human TLR8 (Homo sapiens (Human)) was 252

Recorded IC50 for COc1cc(-c2[nH]c3ccc(C4CCC(NC5CCOCC5)C4)nc3c2C(C)C)cn2ncnc12 (stereo not drawn) [Example 727] on human TLR8 (Homo sapiens (Human)) was 3.2

Recorded IC50 for Cc1c(-c2[nH]c3ccc(C4CCC(NCC5CCCCS5(=O)=O)CC4)nc3c2C(C)C)cn2ncnc2c1C (stereo not drawn) [Example 471] on human TLR8 (Homo sapiens (Human)) was 3.2

Recorded IC50 for COc1cc(-c2[nH]c3ccc(C4CC(N(C)CC5(C)COC5)C4)nc3c2C(C)C)cn2ncnc12 (stereo not drawn) on human TLR8 (Homo sapiens (Human)) was 5.3

Recorded IC50 for Cc1c(-c2[nH]c3ccc(C4CC(N(C)CC(C)(C)O)C4)nc3c2C(C)C)cn2ncnc2c1C (stereo not drawn) on human TLR8 (Homo sapiens (Human)) was 3.5

Recorded IC50 for Cc1cnc(CN(C)C2CCC(c3ccc4[nH]c(-c5cn6ncnc6c(C)c5C)c(C(C)C)c4n3)CC2)cn1 (stereo not drawn) [Example 415] on human TLR8 (Homo sapiens (Human)) was 3.5

Recorded IC50 for Cc1cc(-c2[nH]c3ccc(C4CN(C(C)C)CCO4)nc3c2C(C)C)cn(C)c1=O (stereo not drawn) on human TLR8 (Homo sapiens (Human)) was 29

Recorded IC50 for Cc1c(-c2[nH]c3ccc(C4CCN(CC(=O)N(C)C)CC4)nc3c2C(C)C)cn(C)c(=O)c1C on human TLR8 (Homo sapiens (Human)) was 7.5

Recorded IC50 for COc1cc(-c2[nH]c3ccc(OC4CN(C)C4)nc3c2C(C)C)cn2ncnc12 on human TLR8 (Homo sapiens (Human)) was 67

Recorded IC50 for Cc1c(-c2[nH]c3ccc(C4CCC(NCC5(C)COC5)CC4)nc3c2C(C)C)cn2ncnc2c1C (stereo not drawn) [Example 474] on human TLR8 (Homo sapiens (Human)) was 0.43

Recorded IC50 for COc1cc(-c2[nH]c3ccc(OC4CCN(C(C)C)CC4)nc3c2C(C)C)cn2ncnc12 on human TLR8 (Homo sapiens (Human)) was 5.2

Recorded IC50 for Cc1c(-c2[nH]c3ccc(C4CNCCN4)nc3c2C(C)C)cn2ncnc2c1C (stereo not drawn) on human TLR8 (Homo sapiens (Human)) was 5.2

Recorded IC50 for Cc1c(-c2[nH]c3ccc(C4CCC(NCc5cnco5)CC4)nc3c2C(C)C)cn2ncnc2c1C (stereo not drawn) [Example 413] on human TLR8 (Homo sapiens (Human)) was 18

Recorded IC50 for Cc1c(-c2[nH]c3ccc(C4CCC(NC5CCOCC5)CC4)nc3c2C(C)C)cn2ncnc2c1C (stereo not drawn) [Example 451] on human TLR8 (Homo sapiens (Human)) was 0.63

Recorded IC50 for Cc1c(-c2[nH]c3ccc(C4CCC(N(CCO)CC5(S(C)(=O)=O)CC5)CC4)nc3c2C(C)C)cn2ncnc2c1C (stereo not drawn) [Example 482] on human TLR8 (Homo sapiens (Human)) was 238

Recorded IC50 for CNC(=O)CNC1CC(c2ccc3[nH]c(-c4cn5ncnc5c(C)c4C)c(C(C)C)c3n2)C1 (stereo not drawn) on human TLR8 (Homo sapiens (Human)) was 1.9

Recorded IC50 for Cc1c(-c2[nH]c3ccc(C4CCC(N(CC#N)CC5(S(C)(=O)=O)CC5)CC4)nc3c2C(C)C)cn2ncnc2c1C (stereo not drawn) [Example 478] on human TLR8 (Homo sapiens (Human)) was 15

Recorded IC50 for COc1cc(-c2[nH]c3ccc(OCC4CCN(CCS(C)(=O)=O)CC4)nc3c2C(C)C)cn2ncnc12 on human TLR8 (Homo sapiens (Human)) was 2.5

Recorded IC50 for COc1cc(-c2[nH]c3ccc(C4CN(C5CCOCC5)CCO4)nc3c2C(C)C)cn2ncnc12 (stereo not drawn) on human TLR8 (Homo sapiens (Human)) was 24

Recorded IC50 for Cc1c(-c2[nH]c3ccc(C4CCC(NC5(C(=O)N(C)C)CCCC5)CC4)nc3c2C(C)C)cn2ncnc2c1C (stereo not drawn) on human TLR8 (Homo sapiens (Human)) was 2.8

Recorded IC50 for Cc1c(-c2[nH]c3ccc(C4CC(N(C)C)C4)nc3c2C(C)C)cn2ncnc2c1C (stereo not drawn) [Example 623] on human TLR8 (Homo sapiens (Human)) was 2

Recorded IC50 for Cc1c(-c2[nH]c3ccc(C4CCN(C5COC5)CC4)nc3c2C(C)C)cn(C)c(=O)c1C on human TLR8 (Homo sapiens (Human)) was 17

Recorded IC50 for Cc1c(-c2[nH]c3ccc(C4CCC(N(C)CC(N)=O)CC4)nc3c2C(C)C)cn2ncnc2c1C (stereo not drawn) [Example 501] on human TLR8 (Homo sapiens (Human)) was 16

Recorded IC50 for Cc1c(-c2[nH]c3ccc(N4C[C@H](C)N(C(C)C)C[C@@H]4C)nc3c2C(C)C)cn2ncnc2c1C on human TLR8 (Homo sapiens (Human)) was 1.4

Recorded IC50 for Cc1cc(-c2[nH]c3ccc(C4CCN(CC#N)CC4)nc3c2C(C)C)cn2ncnc12 on human TLR8 (Homo sapiens (Human)) was 3.2

Recorded IC50 for Cc1c(-c2[nH]c3ccc(C4CC5(C4)CN(C(=O)CCN(C)C)C5)nc3c2C(C)C)cn2ncnc2c1C on human TLR8 (Homo sapiens (Human)) was 10

Recorded IC50 for Cc1c(-c2[nH]c3ccc(C4CCC(N5CC(S(C)(=O)=O)C5)CC4)nc3c2C(C)C)cn2ncnc2c1C (stereo not drawn) [Example 445] on human TLR8 (Homo sapiens (Human)) was 3.6

Recorded IC50 for Cc1c(-c2[nH]c3ccc(CCC4CN(CC(C)(C)O)C4)nc3c2C(C)C)cn2ncnc2c1C on human TLR8 (Homo sapiens (Human)) was 15

Recorded IC50 for COc1cc(-c2[nH]c3ccc(C4CCC(NC5COC5)C4)nc3c2C(C)C)cn2ncnc12 (stereo not drawn) on human TLR8 (Homo sapiens (Human)) was 11
